Sourced from patent US10705101B2

Measurement notes: Probe calibration by titration with FFA / FFA-BSA complexes: OA
Assay type: binding
Condition set: equilibrium dissociation constant of probe for OA
# label = true if Kd < 10 nM else false

### Prompt Please check: Kd for L11P7 B3 V26C: acrylodan-labeled mutant FABP probe: M21F, V26C, L72A, L78V, L102V (protein, UniProt P02693 2-132, looked up, variant M21F V26C L72A L78V L102V, acrylodan label, acrylodan-labeled mutant FABP probe: M21F, V26C, L72A, L78V, L102V) Fatty acid-binding protein, …: AFDGTWKVDRNENYEKFMEKFGINVCKRKLGAHDNLKLTITQEGNKFTVKESSNFRNIDVVFELGVDFAYSAADGTEVTGTWTMEGNKLVGKFKRVDNGKEVIAVREISGNELIQTYTYEGVEAKRIFKKE , strictly under 10 nM or not?
### Response true

### Prompt I'd appreciate it if you could check whether L10P7 A4 L30C: acrylodan-labeled mutant FABP probe: Y14L, M18L, K27A, L30C, G31Y, A73L, Y117A (protein, UniProt P02693 2-132, looked up, variant Y14L M18L K27A L30C G31Y A73L Y117A, acrylodan label, acrylodan-labeled mutant FABP probe: Y14L, M18L, K27A, L30C, G31Y, A73L, Y117A) Fatty acid-binding protein, …: AFDGTWKVDRNENLEKFLEKMGINVVARKCYAHDNLKLTITQEGNKFTVKESSNFRNIDVVFELGVDFAYSLLDGTELTGTWTMEGNKLVGKFKRVDNGKELIAVREISGNELIQTATYEGVEAKRIFKKE has Kd smaller than 10 nM.
### Response true

### Prompt Just wondering, is Kd of L1P8 H2: acrylodan-labeled mutant FABP probe: Y14M, L38M, L72W (protein, UniProt P02693 2-132, looked up, variant Y14M L38M L72W, acrylodan label, acrylodan-labeled mutant FABP probe: Y14M, L38M, L72W) Fatty acid-binding protein, …: AFDGTWKVDRNENMEKFMEKMGINVVKRKLGAHDNLKMTITQEGNKFTVKESSNFRNIDVVFELGVDFAYSWADGTELTGTWTMEGNKLVGKFKRVDNGKELIAVREISGNELIQTYTYEGVEAKRIFKKE below 10 nM?
### Response false

### Prompt # check: Kd < 10 nM for L2P22 G6: acrylodan-labeled mutant FABP probe: M18I, G31Y, A73G (protein, UniProt P02693 2-132, looked up, variant M18I G31Y A73G, acrylodan label, acrylodan-labeled mutant FABP probe: M18I, G31Y, A73G) Fatty acid-binding protein, …: AFDGTWKVDRNENYEKFIEKMGINVVKRKLYAHDNLKLTITQEGNKFTVKESSNFRNIDVVFELGVDFAYSLGDGTELTGTWTMEGNKLVGKFKRVDNGKELIAVREISGNELIQTYTYEGVEAKRIFKKE
### Response false

### Prompt Determine whether this molecule shows Kd lower than 10 nM (ties excluded): ADIFAB2: acrylodan-labeled (lysine 27) mutant FABP probe: L72A (protein, UniProt P02693 2-132, looked up, variant L72A, acrylodan label on K27, acrylodan-labeled (lysine 27) mutant FABP probe: L72A) Fatty acid-binding protein, …: AFDGTWKVDRNENYEKFMEKMGINVVKRKLGAHDNLKLTITQEGNKFTVKESSNFRNIDVVFELGVDFAYSAADGTELTGTWTMEGNKLVGKFKRVDNGKELIAVREISGNELIQTYTYEGVEAKRIFKKE
### Response false
